Origin of the recorded values: paper PMC10363607

# Measurement target: HDAC1 (Homo sapiens, UniProt Q13547)
# Sequence (Q13547 whole entry): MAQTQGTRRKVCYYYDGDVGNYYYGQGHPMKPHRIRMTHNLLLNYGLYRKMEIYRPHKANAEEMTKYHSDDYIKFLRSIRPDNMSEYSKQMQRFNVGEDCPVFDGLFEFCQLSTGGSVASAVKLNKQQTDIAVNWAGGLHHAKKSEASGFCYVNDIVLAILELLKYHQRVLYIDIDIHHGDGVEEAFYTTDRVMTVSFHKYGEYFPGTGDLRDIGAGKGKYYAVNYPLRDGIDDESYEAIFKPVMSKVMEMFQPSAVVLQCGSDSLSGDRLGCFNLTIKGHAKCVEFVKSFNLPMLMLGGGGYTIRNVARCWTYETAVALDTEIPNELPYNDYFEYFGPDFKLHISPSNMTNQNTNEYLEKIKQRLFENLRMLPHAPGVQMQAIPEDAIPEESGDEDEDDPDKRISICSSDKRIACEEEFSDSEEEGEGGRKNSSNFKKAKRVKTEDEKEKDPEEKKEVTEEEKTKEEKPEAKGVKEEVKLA
Measure: pIC50
Scale note: pIC50 = -log10(concentration in M).

Reported pIC50 of Cc1cccn2c(=O)c3cc(ONCCCCCC(=O)NO)c(=N)n(CCc4ccc(C(F)(F)F)cc4)c3nc12 : 8.12
